So I've got a bunch of binders here, and I need their IC50 values.
- ASSAY SYSTEM: HIV-1 Env of pseudovirus isolate MGRM-G-017 (subtype G) (HIV-1)
- ASSAY PROTOCOL: cell-based or functional assay
One number for each entry, in µg/mL.

Observe how each entry below is paired with its result.
# input Requested field: IC50. Item: PGT-137 (antibody, V domains shown) VH: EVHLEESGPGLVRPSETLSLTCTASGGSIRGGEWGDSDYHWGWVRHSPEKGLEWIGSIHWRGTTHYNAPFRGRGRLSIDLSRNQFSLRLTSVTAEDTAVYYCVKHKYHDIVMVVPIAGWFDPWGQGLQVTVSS VL: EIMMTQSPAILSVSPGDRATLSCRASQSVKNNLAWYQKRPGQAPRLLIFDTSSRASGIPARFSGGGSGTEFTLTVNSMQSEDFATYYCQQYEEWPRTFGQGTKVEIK
# output 34.9

# input What about PGT-123 (antibody, V domains shown) VH: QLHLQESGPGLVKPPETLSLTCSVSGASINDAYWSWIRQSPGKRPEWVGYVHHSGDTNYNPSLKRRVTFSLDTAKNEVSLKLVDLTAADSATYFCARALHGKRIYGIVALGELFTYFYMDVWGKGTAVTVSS VL: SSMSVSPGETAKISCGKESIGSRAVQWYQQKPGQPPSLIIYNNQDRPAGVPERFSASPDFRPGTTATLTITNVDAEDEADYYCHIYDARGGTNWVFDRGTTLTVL ?
# output 0.026

Please look at the following binder next.
# input Requested field: IC50. Item: PGT-128 (antibody, V domains shown) VH: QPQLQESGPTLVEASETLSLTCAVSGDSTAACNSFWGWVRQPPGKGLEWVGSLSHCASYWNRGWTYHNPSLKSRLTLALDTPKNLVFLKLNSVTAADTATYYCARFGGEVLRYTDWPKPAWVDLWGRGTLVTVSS VL: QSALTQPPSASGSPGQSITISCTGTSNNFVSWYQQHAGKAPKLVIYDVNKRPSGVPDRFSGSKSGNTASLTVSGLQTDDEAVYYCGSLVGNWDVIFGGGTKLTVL
# output 0.319
